experiment: Stability test: storage in nitrogen-filled sealed bottles, purity test by HPLC every month; type: physicochemical; settings: Table 1, stored at −20° C., over 6 months
metric.name: Decomposition rate (%)

| molecule | test.result |
| --- | --- |
| NC(=O)c1ccc[n+]([C@@H]2O[C@H](CO)[C@@H](O)[C@H]2O)c1.O=C(O)CC(O)(CC(=O)O)C(=O)O.O=C(O)CC(O)(CC(=O)O)C(=O)[O-] [Example 2, citrate of NR (1:2)] | 0.69 |
| NC(=O)c1ccc[n+]([C@@H]2O[C@H](CO)[C@@H](O)[C@H]2O)c1.[Cl-] [Comparative Example, chlorine salt of NR, reference compound] | 1.33 |
| NC(=O)c1ccc[n+]([C@@H]2O[C@H](CO)[C@@H](O)[C@H]2O)c1.O=C(O)C[C@H](O)C(=O)O.O=C([O-])C[C@H](O)C(=O)O [Example 4, malate of NR (1:2)] | 0.73 |
| NC(=O)c1ccc[n+]([C@@H]2O[C@H](CO)[C@@H](O)[C@H]2O)c1.O=C([O-])C[C@H](O)C(=O)O [Example 3, malate of NR (1:1)] | 0.94 |
| NC(=O)c1ccc[n+]([C@@H]2O[C@H](CO)[C@@H](O)[C@H]2O)c1.O=C(O)CC(O)(CC(=O)O)C(=O)[O-] [Example 1, citrate of NR (1:1)] | 1.13 |

###

assay: Stability test: storage in nitrogen-filled sealed bottles, purity test by HPLC every month; type: physicochemical; details: Table 2, stored at 2° C. to 8° C., 3 months
// reported purity by HPLC, Time (month) 3 per item
metric.name: purity by HPLC, Time (month) 3

| compound | test.result |
| --- | --- |
| NC(=O)c1ccc[n+]([C@@H]2O[C@H](CO)[C@@H](O)[C@H]2O)c1.[Cl-] [Comparative Example, chlorine salt of NR, reference compound] | 97.540 |
| NC(=O)c1ccc[n+]([C@@H]2O[C@H](CO)[C@@H](O)[C@H]2O)c1.O=C(O)C[C@H](O)C(=O)O.O=C([O-])C[C@H](O)C(=O)O [Example 4, malate of NR (1:2)] | 98.298 |
| NC(=O)c1ccc[n+]([C@@H]2O[C@H](CO)[C@@H](O)[C@H]2O)c1.O=C(O)CC(O)(CC(=O)O)C(=O)[O-] [Example 1, citrate of NR (1:1)] | 98.171 |
| NC(=O)c1ccc[n+]([C@@H]2O[C@H](CO)[C@@H](O)[C@H]2O)c1.O=C(O)CC(O)(CC(=O)O)C(=O)O.O=C(O)CC(O)(CC(=O)O)C(=O)[O-] [Example 2, citrate of NR (1:2)] | 98.097 |
| NC(=O)c1ccc[n+]([C@@H]2O[C@H](CO)[C@@H](O)[C@H]2O)c1.O=C([O-])C[C@H](O)C(=O)O [Example 3, malate of NR (1:1)] | 98.270 |

###

test: Stability test: storage in nitrogen-filled sealed bottles, purity test by HPLC every month; type: physicochemical; conditions: Table 1, −20° C., initial sample (0 month)

| compound | purity by HPLC, Time (month) 0 |
| --- | --- |
| NC(=O)c1ccc[n+]([C@@H]2O[C@H](CO)[C@@H](O)[C@H]2O)c1.O=C(O)C[C@H](O)C(=O)O.O=C([O-])C[C@H](O)C(=O)O [Example 4, malate of NR (1:2)] | 98.818 |
| NC(=O)c1ccc[n+]([C@@H]2O[C@H](CO)[C@@H](O)[C@H]2O)c1.O=C(O)CC(O)(CC(=O)O)C(=O)O.O=C(O)CC(O)(CC(=O)O)C(=O)[O-] [Example 2, citrate of NR (1:2)] | 98.471 |
| NC(=O)c1ccc[n+]([C@@H]2O[C@H](CO)[C@@H](O)[C@H]2O)c1.[Cl-] [Comparative Example, chlorine salt of NR, reference compound] | 98.525 |
| NC(=O)c1ccc[n+]([C@@H]2O[C@H](CO)[C@@H](O)[C@H]2O)c1.O=C([O-])C[C@H](O)C(=O)O [Example 3, malate of NR (1:1)] | 98.573 |
| NC(=O)c1ccc[n+]([C@@H]2O[C@H](CO)[C@@H](O)[C@H]2O)c1.O=C(O)CC(O)(CC(=O)O)C(=O)[O-] [Example 1, citrate of NR (1:1)] | 98.930 |
